src = ChEMBL document CHEMBL1148824

PROTOCOL TEXT: Cmax in Wistar rat at 3 mg/kg, po
Format: ADME, organism-based
Parameters: dose 3 mg/kg, route oral
CONDITION DETAILS: in vivo
Catalogue of log10(Cmax) values
PARAMETER MEASURED: log10(Cmax) (log10 of the value in nM)

COMPOUND: CCN1CCCC(Cn2c(-c3ccccc3C)nc3ccc(OC(F)(F)F)cc3c2=O)C1 (stereo not drawn)
PARAMETER MEASURED: log10(Cmax)
MEAS VALUE: 2.38

COMPOUND: COCCN1CCCC(Cn2c(-c3ccccc3C)nc3ccc(-c4ccc(Cl)cc4)cc3c2=O)C1 (stereo not drawn)
PARAMETER MEASURED: log10(Cmax)
MEAS VALUE: 2.15

COMPOUND: CC(C)c1nc2ccc(-c3ccc(F)cc3)cc2c(=O)n1C[C@H]1CCCN(C(C)C)C1
PARAMETER MEASURED: log10(Cmax)
MEAS VALUE: 2.18

COMPOUND: CCN1CCC[C@H](Cn2c(-c3ccccc3C)nc3ccc(-c4ccc(Cl)cc4)cc3c2=O)C1
PARAMETER MEASURED: log10(Cmax)
MEAS VALUE: 2.08

COMPOUND: Cc1ccccc1-c1nc2ccc(-c3ccc(Cl)cc3)cc2c(=O)n1CC1CCCN(CC(F)(F)F)C1 (stereo not drawn)
PARAMETER MEASURED: log10(Cmax)
MEAS VALUE: 2.23

COMPOUND: Cc1ccccc1-c1nc2ccc(-c3ccc(Cl)cc3)cc2c(=O)n1CC1CCCN(C(C)C)C1 (stereo not drawn)
PARAMETER MEASURED: log10(Cmax)
MEAS VALUE: 2.18

COMPOUND: Cc1nc2ccc(Oc3ccc(F)cc3)cc2c(=O)n1C[C@H]1CCCN(C(C)C)C1
PARAMETER MEASURED: log10(Cmax)
MEAS VALUE: 2.34

COMPOUND: CC(C)c1nc2ccc(-c3ccc(Cl)cc3)cc2c(=O)n1C[C@H]1CCCN(C(C)C)C1
PARAMETER MEASURED: log10(Cmax)
MEAS VALUE: 2.46

COMPOUND: CCN1CCC=C(Cn2c(-c3ccccc3C)nc3ccc(-c4ccc(Cl)cc4)cc3c2=O)C1
PARAMETER MEASURED: log10(Cmax)
MEAS VALUE: 1.48

COMPOUND: CC(C)N1CCC[C@H](Cn2cnc3ccc(-c4ccc(Cl)cc4)cc3c2=O)C1
PARAMETER MEASURED: log10(Cmax)
MEAS VALUE: 2.30

COMPOUND: Cc1ccccc1-c1nc2ccc(-c3ccc(Cl)cc3)cc2c(=O)n1CC1CCCN(CCF)C1 (stereo not drawn)
PARAMETER MEASURED: log10(Cmax)
MEAS VALUE: 2.00

COMPOUND: Cc1ccccc1-c1nc2ccc(-c3ccc(Cl)cc3)cc2c(=O)n1CC1CCCNC1 (stereo not drawn)
PARAMETER MEASURED: log10(Cmax)
MEAS VALUE: 1.30

COMPOUND: Cc1ccccc1-c1nc2ccc(Oc3ccc(F)cc3)cc2c(=O)n1CC1CCCN(C(C)C)C1 (stereo not drawn)
PARAMETER MEASURED: log10(Cmax)
MEAS VALUE: 2.49

COMPOUND: Cc1ccccc1-c1nc2ccc(-c3ccc(Cl)cc3)cc2c(=O)n1CC1CCCN(C2CCC2)C1 (stereo not drawn)
PARAMETER MEASURED: log10(Cmax)
MEAS VALUE: 2.34

COMPOUND: CCN1CCCC(Cn2c(-c3ccccc3C)nc3ccc(-c4ccc(Cl)cc4)cc3c2=O)C1 (stereo not drawn)
PARAMETER MEASURED: log10(Cmax)
MEAS VALUE: 2.08

COMPOUND: Cc1ccccc1-c1nc2ccc(Oc3ccc(F)cc3)cc2c(=O)n1C[C@H]1CCCN(C(C)C)C1 (stereo in doubt; 36)
PARAMETER MEASURED: log10(Cmax)
MEAS VALUE: 1.95

COMPOUND: Cc1ccccc1-c1nc2ccc(Oc3ccc(F)cc3)cc2c(=O)n1CC1CCCNC1 (stereo not drawn)
PARAMETER MEASURED: log10(Cmax)
MEAS VALUE: 1.60

COMPOUND: CC(C)c1nc2ccc(Oc3ccc(F)cc3)cc2c(=O)n1C[C@H]1CCCN(C(C)C)C1
PARAMETER MEASURED: log10(Cmax)
MEAS VALUE: 2.32
